Attribution: paper PMC4861429

target: PAS1(23–168); dimerization helix-containing PAS1 of TodS (Pseudomonas putida, UniProt A5W4E3, W85H); construct: PAS1 sensor domain with dimerization helix, residues 23-168; N-terminal His6 tag kept; E. coli C41(DE3); dimer in solution; experiment: ITC
Sequence (A5W4E3 23-168 W85H): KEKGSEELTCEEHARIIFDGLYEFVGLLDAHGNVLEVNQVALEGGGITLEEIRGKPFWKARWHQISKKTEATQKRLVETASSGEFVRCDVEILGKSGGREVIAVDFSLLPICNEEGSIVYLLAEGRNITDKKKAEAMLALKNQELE
pKd: −log10 of the molar value.

- MOLECULE: "Cc1ccccc1 [toluene]"
  pKd: 4.97

###

molecular target: PAS1(23–168); dimerization helix-containing PAS1 of TodS (Pseudomonas putida, UniProt A5W4E3, E146A); construct: PAS1 sensor domain with dimerization helix, residues 23-168; N-terminal His6 tag kept; E. coli C41(DE3); dimer in solution; assay: ITC
Sequence (A5W4E3 23-168, stated change not applied): as the sequence (A5W4E3 23-168 W85H) above, with H63W counted along it
OUTCOME_MEASURE: Kd

- MOLECULE: "Cc1ccccc1"
  OBS_VALUE: "9.6 µM"
